tested on: T-47D breast; test: NCI tumour cell line growth inhibition, 48 h
Parameter Measured: TGI

{"Molecule": "O=C1C=CC(=O)c2c1ccc1c3ccccc3n(-c3cccc([N+](=O)[O-])c3)c21", "TGI": "5.67 µM"}
{"Molecule": "Fc1ccc(C(=C2CCN(CCc3ccc4[nH]c(=S)[nH]c4c3)CC2)c2ccc(F)cc2)cc1", "TGI": "4.1 µM"}
{"Molecule": "CC(C(=O)OCc1ccccc1)(c1ccco1)N1C(=O)OC(c2ccccc2)C1c1ccccc1 (stereo not drawn)", "TGI": "> 100 µM"}
{"Molecule": "Cc1nc2sc3c(c2c(=O)[nH]1)CCCC3", "TGI": "> 100 µM"}
{"Molecule": "N#Cc1c(N/N=C/c2ccc(Cl)cc2Cl)nc(N)nc1N1CCCC1", "TGI": "> 100 µM"}

Kindly give each listed record's TGI.
1. CC(C)(C)OC(=O)NC(Cc1ccc(OC(C)(C)C)cc1)C(=O)N[C@H]1CCC[C@H]1C(=O)NC(Cc1ccccc1)C(=O)N1CCCC1C(N)=O (stereo partly drawn)
2. CCCOc1ccc2sc(NC(=O)OC)nc2c1
3. O=C1c2ccccc2-c2c1c1ccccc1c(=O)n2CCCCl
4. CCN1CCC(O)(/C=C/c2ccc(C)cc2)C(C(=O)/C=C/c2ccc(C)cc2)C1 (stereo not drawn)
5. CCOc1ccncc1[N+](=O)[O-]
6. CCC(C)C1NC(=O)C(NC(=O)c2c3[nH]c4c(C(=O)NC5C(=O)NC(C(C)CC)C(=O)N6CCCC6C(=O)N(C)CC(=O)N(C)C(C(C)C)C(=O)OC5C)ccc(C)c4oc-3c(C)c(=O)c2=O)C(C)OC(=O)C(C(C)C)N(C)C(=O)CN(C)C(=O)C2CCCN2C1=O (stereo not drawn)
7. CC1=CCC(C)=Nc2nc3ccccc3n21

["> 100 µM", "> 100 µM", "> 100 µM", "9.89 µM", "> 100 µM", "> 40.5 µM", "> 100 µM"]

Kindly give each listed record's TGI.
1. C#CC(C)(C)OC(=O)C(=[N+]=[N-])C(C)=O
2. COC(=O)CC1C=CC(C)(OC)OO1 (stereo not drawn)

1: > 10 µM; 2: > 100 µM

Kindly give each listed record's TGI.
1. Cc1cc(C)c(C[C@H]2COC(=O)[C@]2(O)Cc2c(C)cc(C)cc2C)c(C)c1
2. O[C@H](c1cc(C(F)(F)F)nc2c(C(F)(F)F)cccc12)[C@@H]1CCCCN1
3. CCCCCC(=O)CCCCCCCC(O)CC(=O)OCC (stereo not drawn)
4. COc1ccc(-c2coc3c4c(ccc3c2=O)OCO4)cc1OC
5. Cn1cc(C2=C(c3cccc(Br)c3)C(=O)NC2=O)c2ccccc21
6. [N-]=[N+]=Nc1cc(=O)n2c3c(cccc13)CCC2
7. CN1C(=O)/C(=C/c2c(Cl)n(C)c3ccccc23)c2ccccc21
8. O=C(O)c1nc2ccc(C(F)(F)F)cc2nc1NCc1ccc(F)cc1

1: 25.2 µM; 2: 16 µM; 3: > 100 µM; 4: > 100 µM; 5: > 25 µM; 6: > 100 µM; 7: 0.825 µM; 8: > 100 µM

Kindly give each listed record's TGI.
1. CN(C)c1ccc(/C=N\NC(=O)Nc2cccc3ccccc23)cc1
2. CCOC(=O)/C=C/[C@H](O[Si](CC)(CC)CC)C(C)(C)C
3. COc1ccc2[nH]c3c(c2c1)CC(=S)N1CCCC(CC3=O)C1 (stereo not drawn)
4. O=c1cc(CO)oc(C(O)c2ccccc2)c1O (stereo not drawn)
5. CCN1C(=O)N(CC)C2C1NN=c1s/c(=C3\C(=O)N(CC(C)(C)C)c4ccccc43)c(=O)n12 (stereo not drawn)
6. O=S1(=O)Cc2ccc3c4c2-c2c(ccc5ccc(c-4c25)CS(=O)(=O)C3)C1
7. Nc1nc(Cl)c(N)c(NCC2(CO)CCCC2)n1
8. COc1cc(N(CCC#N)CCC#N)ccc1/C(N=Nc1ccccc1C)=N\NC(=O)c1ccc(C)cc1

["19.8 µM", "> 100 µM", "> 100 µM", "> 100 µM", "53.7 µM", "> 100 µM", "35.9 µM", "> 100 µM"]

Kindly give each listed record's TGI.
1. Cn1c(=O)oc2cc(C(O)CN3CCN(Cc4ccccn4)CC3)c(Cl)cc21 (stereo not drawn)
2. O=C(Oc1cccnc1)c1cc2cc(CCl)ccc2oc1=O
3. CCOP(=O)(COCCn1ncc(=O)[nH]c1=O)OCC
4. c1ccc2c(c1)c1c(c3ccccc32)CN2CCCC2C1 (stereo not drawn)

1. > 100 µM
2. 48 µM
3. > 100 µM
4. > 100 µM

Kindly give each listed record's TGI.
1. COc1ccc2c(c1)C(=O)OCCC2
2. [N-]=[N+]=NC1C(O)C(CO)OC1n1ccc(=O)[nH]c1=O (stereo not drawn)
3. Cc1cc(C)c(NC(=O)c2sc3nc4c(cc3c2N)CN(Cc2ccccc2)CC4)c(C)c1
4. O=C(c1ccccc1)c1c(-c2ccccc2)n(-c2ccccc2)[nH]c(=O)c1=O
5. CC1C[C@]2(C)C(=NCCN)Nc3ccccc3[C@@H]2N(C)c2ccccc21 (stereo partly drawn)
6. CSc1ccc2c(c1)C(=O)c1c-2n(CCCBr)c(=O)c2cc([N+](=O)[O-])ccc12
7. O=C(/N=C/c1c(O)c2ccccc2oc1=O)Oc1ccccc1
8. O=S(=O)(Nc1ccc(F)cc1F)c1ccc(-c2cnc(C3CC3)o2)cc1

1. > 100 µM
2. > 875 µM
3. > 100 µM
4. > 100 µM
5. 39.2 µM
6. > 100 µM
7. 91.9 µM
8. 52.8 µM

Entry Nc1nc(NCC2(CO)CC2)cc(=O)[nH]1 : reported TGI = ?
> 100 µM

----------
test system: OVCAR-8 ovarian; test: NCI tumour cell line growth inhibition, 48 h
So I've got a bunch of compounds here, and I need their TGI values.
Answers are plain numbers, in µM.

Here's what some known entries look like.
{"Compound": "COc1cc2c3c(n(CCCOC(=O)C(F)(F)F)c(=O)c2cc1OC)-c1cc2c(cc1C3=O)OCO2", "TGI / µM": 0.664}
{"Compound": "O=c1oc2ccccc2cc1-c1cn2ccccc2n1", "TGI / µM": 10.7}
{"Compound": "O=[N+]([O-])c1ccc(N2N=C(c3ccc(NCc4nc5ccccc5[nH]4)cc3)CC2c2ccco2)cc1 (stereo not given)", "TGI / µM": 57.7}

Now take the following compound into account.
Entry COc1cc(O)c(C(=O)/C=C/c2ccc(O)cc2)cc1Oc1ccc(/C=C/C(=O)c2ccc(O)cc2O)cc1 : reported TGI = ?
24.7

----------
tested on: OVCAR-3 ovarian; experiment: NCI tumour cell line growth inhibition, 48 h
So I've got a bunch of molecules here, and I need their GI50 values.

Here's what some known entries look like.
{"Molecule": "CCN1C(=O)N(CC)C2C1NN=c1s/c(=C3\\C(=O)N(CC(C)(C)C)c4ccccc43)c(=O)n12 (stereo not given)", "GI50": "3.17 µM"}
{"Molecule": "COc1cc(C(=O)N2CCN(c3ncccn3)CC2)c(N)cc1OCc1ccccc1", "GI50": "85.6 µM"}
{"Molecule": "CCN(Cc1ccccc1C)c1ccc(CO)c(Cl)c1", "GI50": "2.13 µM"}
{"Molecule": "NC(=O)c1cc(S(=O)(=O)Nc2nnc(-c3ccccc3)c(-c3ccccc3)n2)c(SCc2ccccc2)cc1Cl", "GI50": "> 100 µM"}

// fetch OVCAR-3 ovarian GI50 for OCCCNc1nccc(-c2c(-c3ccc(F)cc3)nn3cc(C(F)(F)F)ccc23)n1
15.1 µM

----------
So I've got a bunch of compounds here, and I need their TGI values.
test system: CCRF-CEM leukemia; assay: NCI tumour cell line growth inhibition, 48 h

{"Compound": "COc1ccc(-c2coc3c4c(ccc3c2=O)OCO4)cc1OC", "Parameter Measured": "TGI", "Observed": "> 100 µM"}
{"Compound": "Cc1ccc(C)c(N=C2NC(=O)C(CC(=O)Nc3ccc(Cl)cc3Cl)S2)c1 (stereo unspecified)", "Parameter Measured": "TGI", "Observed": "> 100 µM"}
{"Compound": "COc1ccc(CC2c3cc(OC)c(OC)cc3CC[N+]2(C)C)cc1OC (stereo unspecified)", "Parameter Measured": "TGI", "Observed": "> 100 µM"}
{"Compound": "[N-]=[N+]=Nc1cc(=O)[nH]nc1-c1ccccc1", "Parameter Measured": "TGI", "Observed": "> 100 µM"}
{"Compound": "CCCCSC1=N/C(=C\\c2ccco2)C(Cl)=N1", "Parameter Measured": "TGI", "Observed": "> 100 µM"}

Kindly give each listed record's TGI.
1. O=C(O)C1C2C=CC(C2)C1c1ccccc1 (stereo unspecified)
2. C=C(C(=O)O)[C@@H]1C[C@@H](OC(C)=O)[C@]2(C)CC/C=C(\C)CCC[C@H](C)[C@H](O)[C@@H]1O2
3. O=C(O)c1nc2ccc(C(F)(F)F)cc2nc1NCc1ccc(F)cc1

1: > 100 µM; 2: 73.4 µM; 3: > 100 µM

# credit: PubChem BioAssay (NCI)
